# protocol_notes: Evaluation of potential toxicity (MTT assay)
# Format: cell-based
# assay_conditions: human, pbls, 0.1 μg/ml, 21 hours plus 3 hours MTT

# molecule, cytotoxicity at 24 h [%]
rows = [
    ("C=C1CCC2C3(C)CC(C=C(C)C)OC3CCC2(C)C1Cc1c(O)c(C)c(C)oc1=O (stereo not shown) [subglutinol]", 20),
]
